Test system: UACC-257 melanoma
TEST SUMMARY: NCI-60 one-dose screen, 48 h (100 = growth as untreated, 0 = no growth, -100 = all killed)
COND: 10 µM unless noted
Method: Cells are grown in 96 well plates and exposed to the test compound for 48 hours. Compounds are tested at a single concentration, which is 10^-5 M for most compounds. The reported endpoint is percent growth (GI% or GIPRCNT), where numbers from 0 - 100% represent growth inhibition, and numbers from -100% - 0 represent cell death. For example, a value of 40 represents 60% growth inhibition. A value of 0 means no net growth occurred over the course of the experiment. […]
Compounds without any hit were thinned out: in the full panel of roughly 83,000, 20% have a hit.

| ENTRY SMILES | SYSTEM TESTED | growth, % |
| --- | --- | --- |
| COc1cccc(C=Nc2cc(C(C)C)c(O)cc2C)c1O | UACC-257 melanoma | 111 |
| COc1ccc(NS(=O)(=O)N2CCCCC2)cc1 | UACC-257 melanoma | 102 |
| CCN(CC)CCSc1ncnc2c1cnn2-c1ccc(S(N)(=O)=O)cc1 | UACC-257 melanoma | 65.5 |
| CCOC(=O)c1sc(NC(=O)COc2ccc(/C=C3\CCc4cc(OC)ccc4C3=O)cc2)nc1C | UACC-257 melanoma | 93.7 |
| Cc1sc2nc(NCc3ccccc3)[nH]c(=O)c2c1C | UACC-257 melanoma | 73 |
| Nc1ccc2c(c1Br)Cc1ccccc1-2 | UACC-257 melanoma | 114 |

====

System: SF-268 CNS
TEST SUMMARY: NCI-60 one-dose screen, 48 h (100 = growth as untreated, 0 = no growth, -100 = all killed)
COND: 10 µM unless noted
Method: Cells are grown in 96 well plates and exposed to the test compound for 48 hours. Compounds are tested at a single concentration, which is 10^-5 M for most compounds. The reported endpoint is percent growth (GI% or GIPRCNT), where numbers from 0 - 100% represent growth inhibition, and numbers from -100% - 0 represent cell death. For example, a value of 40 represents 60% growth inhibition. A value of 0 means no net growth occurred over the course of the experiment. […]
Compounds without any hit were thinned out: in the full panel of roughly 83,000, 20% have a hit.
# growth >= 50% gives Satisfied, anything below gives Not satisfied

| COMPOUND | CLASS ASSIGNMENT |
| --- | --- |
| COC(=O)c1cc2oc(/C=N\NC(=O)c3cc4oc(C)c(C)c4[nH]3)cc2[nH]1 | Satisfied |
| COc1ccc(C2=NN(C(C)=O)C(c3cccc(Nc4ccnc5cc(Cl)ccc45)c3)C2)cc1 (centres undefined) | Not satisfied |
| C[C@@H]1C[C@@H]([C@@H](CC2CC(=O)NC(=O)C2)OC(=O)CC(=O)c2ccccc2)C(=O)[C@@H](C)C1 | Not satisfied |
| CC(=O)/C(=C/c1ccc(Cl)cc1)C(=O)c1ccccc1 | Satisfied |
| O=C(NC1CCCCC1)c1ccc(Nc2ncnc3c2cnn3-c2ccccc2)cc1 | Not satisfied |
| C#C[C@]1(O)CCC2C3CCc4cc(O)ccc4C3CC[C@@]21C (some centres undefined) | Not satisfied |
| COc1ccc(C2=NN(C(C)=O)C(c3c(C)nn(-c4ccccc4)c3N3CCOCC3)C2)cc1 (centres undefined) | Satisfied |
| CC(C)=CCCC(C)c1ccc(C)c2c1OCN(CC1CCNCC1)C2 (centres undefined) | Satisfied |
| Nc1nc2c(c(=O)[nH]1)C1(C(=O)Nc3ccccc31)c1c(nc(N)[nH]c1=O)N2 | Satisfied |

Origin of measurements: PubChem BioAssay (NCI)
